Hemolytic Assay IC50, Cyno CP for assorted binders
# target_entity: cynomolgus monkey complement component C3 (cynomolgus monkey, UniProt P01024 24-1663 (human entry))
# Sequence (P01024 other isoform, or with tags, fused parts or gaps): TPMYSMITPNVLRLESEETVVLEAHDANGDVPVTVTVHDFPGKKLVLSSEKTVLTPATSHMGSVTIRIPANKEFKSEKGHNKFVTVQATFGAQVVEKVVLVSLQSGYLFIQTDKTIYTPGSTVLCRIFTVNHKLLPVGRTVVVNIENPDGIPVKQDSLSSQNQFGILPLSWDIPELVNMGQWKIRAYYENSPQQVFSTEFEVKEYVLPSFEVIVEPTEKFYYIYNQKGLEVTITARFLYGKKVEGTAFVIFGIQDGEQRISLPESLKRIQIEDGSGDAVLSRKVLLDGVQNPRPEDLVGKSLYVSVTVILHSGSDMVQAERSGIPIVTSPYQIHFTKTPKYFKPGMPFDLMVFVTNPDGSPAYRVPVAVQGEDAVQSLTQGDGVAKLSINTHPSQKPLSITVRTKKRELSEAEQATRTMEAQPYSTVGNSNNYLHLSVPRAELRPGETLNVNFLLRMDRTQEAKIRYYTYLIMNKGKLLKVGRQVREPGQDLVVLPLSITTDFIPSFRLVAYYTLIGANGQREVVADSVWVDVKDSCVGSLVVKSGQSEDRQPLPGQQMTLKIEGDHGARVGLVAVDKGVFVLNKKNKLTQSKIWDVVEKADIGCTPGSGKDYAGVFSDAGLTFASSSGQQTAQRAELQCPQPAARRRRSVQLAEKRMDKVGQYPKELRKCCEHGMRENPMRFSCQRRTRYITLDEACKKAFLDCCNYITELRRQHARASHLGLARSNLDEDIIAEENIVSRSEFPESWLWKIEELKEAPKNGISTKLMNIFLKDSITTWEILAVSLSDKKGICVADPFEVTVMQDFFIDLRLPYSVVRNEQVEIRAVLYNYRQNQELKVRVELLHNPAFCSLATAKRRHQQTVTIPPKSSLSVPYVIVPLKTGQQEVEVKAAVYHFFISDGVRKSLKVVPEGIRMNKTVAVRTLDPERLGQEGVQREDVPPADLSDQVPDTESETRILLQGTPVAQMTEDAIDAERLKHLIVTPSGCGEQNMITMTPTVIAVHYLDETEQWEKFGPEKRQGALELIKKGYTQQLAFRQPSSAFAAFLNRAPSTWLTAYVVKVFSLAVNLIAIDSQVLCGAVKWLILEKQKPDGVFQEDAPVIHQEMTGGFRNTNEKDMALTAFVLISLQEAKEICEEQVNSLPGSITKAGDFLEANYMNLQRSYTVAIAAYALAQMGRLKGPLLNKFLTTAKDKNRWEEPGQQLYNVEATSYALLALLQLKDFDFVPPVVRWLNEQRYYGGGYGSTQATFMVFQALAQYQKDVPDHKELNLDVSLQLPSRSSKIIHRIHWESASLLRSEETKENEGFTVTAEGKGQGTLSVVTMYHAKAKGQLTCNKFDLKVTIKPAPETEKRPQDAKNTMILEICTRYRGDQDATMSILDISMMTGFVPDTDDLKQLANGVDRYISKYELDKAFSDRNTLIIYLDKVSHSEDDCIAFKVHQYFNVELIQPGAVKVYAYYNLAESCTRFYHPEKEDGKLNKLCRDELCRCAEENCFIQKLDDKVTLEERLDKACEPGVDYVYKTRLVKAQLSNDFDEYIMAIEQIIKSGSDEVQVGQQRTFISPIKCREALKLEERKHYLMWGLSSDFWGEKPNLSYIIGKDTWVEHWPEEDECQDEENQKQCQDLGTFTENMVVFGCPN
# test_protocol: cell-based or functional assay
Your answer is read as nM, so omit the unit and give the number.

[[record]]
binder = "antibody 38F5 (antibody, V domains shown, Mouse hybridoma antibody) VH: EVMLVESGGALVKPGGSLKLSCTASGFTFSNYAMSWVRQTPEKRLEWVAQTISSGGRYTYYPDSVKGRFTISRDNARNTLYLQMSSLRSEDTAMYYCVRRYYGNSYWYFDVWGAGTTVTVSS VL: DIVMTQSPSSLSVSAGEKVTMNCKSSQSLLNSGNQKHYLTWYQQKPGQPPKLLIYGASTRGSGVPDRFTGSGSGTDFTLTISSVQAEDLAVYYCQNDHSYPYTFGGGTKLEIK"
numeric_value = 2.3


Moving on to another binder below.
Look up and state reported Hemolytic Assay IC50, Cyno CP for antibody 62F2 (antibody, V domains shown, Mouse hybridoma antibody) VH: DVQLQESGPDLVKPSQSLSLTCTVTGYSITSGYSLHWIRQFPGNKLEWMGYIHYSGSTNYNPSLKSRISITRDTSKNQFFLKLNSVTSEDTATYHCARAWDYLDYWGQGTTLTVSS VL: DIQMTQSPASLSASVGETVTITCRASENIYSQLAWYQQKQGKSPQLLVYDAKTLAEGVPSRFSGSGSDTQFSLKIISLQPEDFGRYYCHHHFGILYTFGGGTKLEMK
5.3
